Tested On: IDO (Homo sapiens)
Assay Remarks: LLE_IDO_ABS_DR (IDO assay)
pIC50: −log10 of the molar value.
Recorded Metric: pIC50

Compound: CC(C)CN(CCC1CC1)c1ccc(-c2cc(F)ccc2C(=O)O)cc1NC(=O)Nc1ccccc1F [Example 135]
Data Value: 7.70
//
Compound: CCCN(Cc1ccccc1)c1ccc(-c2ccccc2-c2nnn[nH]2)cc1NC(=O)Nc1ccc(C)cc1 [Example 185]
Data Value: 8.58
//
Compound: CCCCN(CCCC)c1ccc(-c2ccccc2-c2nnn[nH]2)cc1NC(=O)Nc1ccc(C)cc1 [Example 88]
Data Value: 8.01
//
Compound: C=CC(c1ccccc1)c1cc(-c2ccccc2-c2nnn[nH]2)cc(NC(=O)Nc2ccccc2F)c1NCC(C)C (stereo not shown) [Example 357]
Data Value: 7.40
//
Compound: Cc1ccc(NC(=O)Nc2cc(-c3ccccc3-c3nnn[nH]3)ccc2N(CC(C)C)CC(C)CC(F)(F)F)cc1 (stereo not shown) [Example 27]
Data Value: 8.59
//
Compound: O=C(Nc1cc(-c2ccccc2-c2nnn[nH]2)ccc1N(CCCC(F)(F)F)Cc1ccc(Cl)cc1)Nc1ccccc1C(F)(F)F [Example 321]
Data Value: 6.21
//
Compound: O=C(Nc1ccc(C2CC2)cc1)Nc1cc(-c2ccccc2-c2nnn[nH]2)ccc1N1CCC(F)(F)C1 [Example 347]
Data Value: 5.28

* * *

Tested On: Human IDO1 (Homo sapiens, UniProt P14902)
Construct: expressed in transfected cells; host or cells: HEK293
Sequence (P14902 whole entry): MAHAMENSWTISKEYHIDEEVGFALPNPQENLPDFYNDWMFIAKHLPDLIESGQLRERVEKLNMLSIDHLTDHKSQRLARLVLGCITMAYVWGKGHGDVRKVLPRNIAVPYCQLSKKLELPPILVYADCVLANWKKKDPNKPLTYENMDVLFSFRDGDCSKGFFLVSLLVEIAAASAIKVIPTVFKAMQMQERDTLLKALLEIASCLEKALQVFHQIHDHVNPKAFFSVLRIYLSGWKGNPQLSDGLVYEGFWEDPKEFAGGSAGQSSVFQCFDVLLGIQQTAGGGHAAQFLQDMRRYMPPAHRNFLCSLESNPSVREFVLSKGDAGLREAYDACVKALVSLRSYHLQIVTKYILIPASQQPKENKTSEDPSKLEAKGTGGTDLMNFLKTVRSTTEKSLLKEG
Assay Remarks: IDO Kynurenine Assay with Human IDO1/HEK293 Cells
Type: cell-based
Experimental Parameters: read-out: HEK human IDO-1 (IC50)
pIC50: −log10 of the molar value.
The following ranges of pIC50 define the classes used here: low (below 6), intermediate (6 to below 8), high (8 or more)

Compound: CC(C)CN(CC(C)C)c1ccc(-c2ccccc2-c2nnn[nH]2)cc1NC(=O)Nc1ccc(N(C)C)cc1 [Example 463]
Label: intermediate
//
Compound: Cc1ccc(NC(=O)Nc2cc(-c3cccc(F)c3C(=O)O)ccc2N(CC(C)C)CC(C)C)cc1 [Example 150]
Label: intermediate
//
Compound: Cc1ccc(NC(=O)Nc2cc(-c3ccccc3-c3nnn[nH]3)cc(Cl)c2N(CC(C)C)CC(C)C)cc1 [Example 39]
Label: high
//
Compound: Cc1cc(NC(=O)Nc2cc(-c3ccccc3-c3nnn[nH]3)ccc2N(C2CC2)C2CC2)no1 [Example 509]
Label: low
//
Compound: CC(C)CN(c1cc(F)c(-c2cc(F)ccc2C(=O)O)cc1NC(=O)Nc1cnn(CC(F)(F)F)c1)C1CCC(F)(F)CC1 [Example 520]
Label: low
//
Compound: Cc1ccc(NC(=O)Nc2cc(-c3ccccc3-c3nnn[nH]3)c(F)cc2N(CC(C)C)CC(C)C)cc1 [Example 429]
Label: high
//
Compound: O=C(Nc1ccc(OC(F)(F)F)cc1)Nc1cc(-c2ccccc2-c2nnn[nH]2)ccc1N(CCCC(F)(F)F)Cc1ccc(Cl)cc1 [Example 322]
Label: intermediate
//
Compound: Cc1ccc(NC(=O)Nc2cc(-c3ccccc3-c3nnn[nH]3)ccc2N(CC(C)(F)F)C2CCCCC2)cc1 [Example 356]
Label: high
//
Compound: COC(C)(C)CCN(c1ccc(-c2ccccc2C(=O)O)cc1NC(=O)Nc1ccc(C)cc1)C1CCCCC1 [Example 420]
Label: low
//
Compound: CC(C)CN(CC(C)C)c1ccc(-c2ccccc2-c2nnn[nH]2)cc1NC(=O)Nc1ccc(C(C)C)cc1 [Example 455]
Label: intermediate
//
Compound: COC(C)(C)CCN(c1ccc(-c2cc(F)ccc2C(=O)O)cc1NC(=O)Nc1ccc(C)cc1)C1CCCCC1 [Example 421]
Label: low
//
Compound: COc1ccc(-c2ccc(N(CC(C)C)CC(C)C)c(NC(=O)Nc3ccc(Cl)cc3F)c2)c(C(=O)O)c1 [Example 494]
Label: intermediate

* * *

Tested On: IDO (Homo sapiens, UniProt P14902)
Sequence (P14902 whole entry): as above
Assay Remarks: LLE_IDO_ABS_DR (IDO assay)
pIC50: −log10 of the molar value.
Documented pIC50 across a set of compounds

Compound: Cc1ccc(NC(=O)Nc2cc(-c3ccccc3-c3nnn[nH]3)ccc2N(CC(C)C)C2CCCCC2)cc1
pIC50: 8.32
//
Compound: CCN(c1ccc(-c2ccccc2C(=O)O)cc1NC(=O)Nc1ccc(C)cc1)C1CCCC1
pIC50: 7.70
//
Compound: Cc1ccc(NC(=O)Nc2cc(-c3cc(F)ccc3C(=O)O)ccc2N(CCC(F)(F)F)Cc2ccc(Cl)cc2)cc1
pIC50: 7.05
//
Compound: Cc1ccc(NC(=O)Nc2cc(-c3ccncc3C(=O)O)ccc2N(CC(C)C)CC(C)C)cc1
pIC50: 6.01
//
Compound: Cc1ccc(NC(=O)Nc2cc(-c3ccccc3-c3nnn[nH]3)ccc2N(CCC(F)(F)F)Cc2ccc(F)cc2)cc1
pIC50: 7.05
//
Compound: CCN(CCOC)c1ccc(-c2ccccc2C(=O)O)cc1NC(=O)Nc1ccc(C)cc1
pIC50: 6.07
//
Compound: O=C(Nc1ccc(C2CC2)c(F)c1)Nc1cc(-c2ccccc2-c2nnn[nH]2)ccc1N(CCC(F)(F)F)Cc1ccc(Cl)cc1Cl
pIC50: 6.46
//
Compound: Cc1ccc(NC(=O)Nc2cc(-c3ccccc3C(=O)O)ccc2N(CCC(F)(F)F)CC2CC2)cc1
pIC50: 6.54
//
Compound: Cc1ccc(NC(=O)Nc2cc(-c3ccccc3NS(=O)(=O)C(F)(F)F)ccc2N(CC(C)C)CC(C)C)cc1
pIC50: 7.10
//
Compound: O=C(Nc1ccc(F)cc1F)Nc1cc(-c2ccccc2-c2nnn[nH]2)ccc1N(CCC(F)(F)F)Cc1ccc(F)cc1C(F)(F)F
pIC50: 7.52
//
Compound: CC(C)CN(CC(C)C)c1ccc(-c2ccccc2-c2nnn[nH]2)cc1NC(=O)Nc1ccccc1C1CC1
pIC50: 6.34
//
Compound: Cc1ccc(NC(=O)Nc2cc(-c3ccccc3-c3nnn[nH]3)ccc2N(C)C2CCCCCC2)cc1
pIC50: 8.74
//
Compound: CCCCN(CCCC)c1ccc(-c2ccccc2C(=O)O)cc1NC(=O)Nc1ccc(C)cc1
pIC50: 7.30
//
Compound: O=C(Nc1ccc(OC(F)(F)F)cc1)Nc1cc(-c2ccccc2-c2nnn[nH]2)ccc1N(CCc1ccccc1)CCC(F)(F)F
pIC50: 6.80
//
Compound: O=C(Nc1ccc(OC(F)(F)F)cc1)Nc1cc(-c2ccccc2-c2nnn[nH]2)ccc1N1CC2CC1CN2Cc1ccccc1 (stereo not drawn)
pIC50: 6.92

* * *

Tested On: Human IDO1 (Homo sapiens)
Assay Remarks: IDO Kynurenine Assay with Human IDO1/HEK293 Cells
Experimental Parameters: read-out: HEK human IDO-1 (IC50)
pIC50: −log10 of the molar value.
Documented pIC50 across a set of molecules

Molecule: Cc1ccc(NC(=O)Nc2cc(-c3ccccc3-c3nnn[nH]3)ccc2N(CCC(F)(F)F)Cc2ccc(Cl)cc2)cc1
pIC50: 7.70

Molecule: Cc1cc(NC(=O)Nc2cc(-c3cc(F)ccc3C(=O)O)c(F)cc2N(CC(C)C)C2CCC(F)(F)CC2)no1
pIC50: 7.70

Molecule: CC(C)CN(c1cc(F)c(-c2cc(F)ccc2C(=O)O)cc1NC(=O)Nc1ccnnc1)C1CCCCC1
pIC50: 5.32

Molecule: CC(C)CN(c1cc(F)c(-c2cc(F)ccc2C(=O)O)cc1NC(=O)Nc1ccc(C#N)cc1)C1C[C@H]2CC[C@@H]1C2 (stereo partly shown)
pIC50: 7.30

* * *

Tested On: IDO (Homo sapiens, UniProt P14902)
Assay Remarks: LLE_IDO_ABS_DR (IDO assay)
pIC50: −log10 of the molar value.

Molecule: COc1ccccc1NC(=O)Nc1cc(-c2ccccc2-c2nnn[nH]2)ccc1N(CC(C)C)CC(C)C [Example 281]
pIC50: 5.84
//
Molecule: CCCN(c1ccc(-c2ccccc2-c2nnn[nH]2)cc1NC(=O)Nc1ccc(C)cc1)C1CCCCC1 [Example 85]
pIC50: 8.78
//
Molecule: O=C(Nc1ccc(OC(F)(F)F)cc1)Nc1cc(-c2ccccc2-c2nnn[nH]2)ccc1N(CCC(F)(F)F)Cc1ccc(F)cc1 [Example 323]
pIC50: 6.27
//
Molecule: [2H]C([2H])(C(C)C)N(c1ccc(-c2ccccc2-c2nnn[nH]2)cc1NC(=O)Nc1ccccc1F)C1CCCCC1 [Example 32]
pIC50: 8.60
//
Molecule: Cc1ccc(NC(=O)Nc2cc(-c3ccccc3-c3nnn[nH]3)ccc2N2CCCc3ccccc32)cn1 [Example 362]
pIC50: 5.26
//
Molecule: Cc1ccc(NC(=O)Nc2cc(-c3ccc(F)cc3NS(=O)(=O)C(F)(F)F)ccc2N(CC(C)C)CC(C)C)cc1 [Example 81]
pIC50: 6.57
//
Molecule: CC(C)CN(CC(C)C)c1ccc(-c2ccccc2-c2nnn[nH]2)cc1NC(=O)Nc1cccc(N(C)C)c1 [Example 262]
pIC50: 6.72

* * *

Documented IC50 across a set of molecules
Tested On: IDO (Homo sapiens, UniProt P14902)
Assay Remarks: LLE_IDO_ABS_DR (IDO assay)
Recorded Metric: IC50 (nM)

Molecule: Cc1ccc(NC(=O)Nc2cc(-c3ccccc3C(=O)O)ccc2N(CC(C)C)C2CCC(F)(F)CC2)cc1
Recorded Metric: IC50
Data Value: 2.88

Molecule: Cc1cc(NC(=O)Nc2cc(-c3ccccc3-c3nnn[nH]3)ccc2N(CC(C)C)CC2CC(F)(F)C2)on1
Recorded Metric: IC50
Data Value: 500

Molecule: C=CC(c1ccccc1)c1cc(-c2ccccc2-c2nnn[nH]2)cc(NC(=O)Nc2ccc(C)cc2)c1NCC(C)C (stereo not shown)
Recorded Metric: IC50
Data Value: 20

Molecule: Cc1ccc(NC(=O)Nc2cc(-c3ccccc3C(=O)NS(C)(=O)=O)ccc2N(CC(C)C)CC(C)C)cc1
Recorded Metric: IC50
Data Value: 660

Molecule: CC1CC(C)CN(c2ccc(-c3ccccc3-c3nnn[nH]3)cc2NC(=O)Nc2ccc(F)cc2)C1 (stereo not shown)
Recorded Metric: IC50
Data Value: 2140

Molecule: COCCN(Cc1ccc(Cl)cc1)c1ccc(-c2ccccc2-c2nnn[nH]2)cc1NC(=O)Nc1ccc(C)cc1
Recorded Metric: IC50
Data Value: 5.79

Molecule: Cc1ccc(NC(=O)Nc2cc(-c3ccccc3-c3nnn[nH]3)ccc2N(CCC2CC2)CC(C)C)cc1
Recorded Metric: IC50
Data Value: 9.53

Reference for the values: patent US9758492B2
